Origin of the recorded values: PubChem BioAssay (NCI)

# Test system: M14 melanoma
# assay.text: NCI-60 one-dose screen, 48 h
# reported.conditions: 10 µM unless noted
About 83,000 compounds went through this panel and 20% of them were active in at least one assay; those are over-represented in the sample as a whole. Calls of active or inactive are those of the source. The calls were made as follows: active = growth percent below 10; inactive = the rest.
Outcome codes: 1 (yes) for active, 0 (no) for inactive

- c1ccc(Cn2cc3c(c2)-c2oncc2CC3)cc1: 0 (no)
- CC(=O)c1c(C)nc(SCC(=O)Nc2cccc(O)c2)n1-c1ccc(Cl)cc1: 0 (no)
- COc1cc(OCc2cccc(Br)c2C)cc(OC)c1C=O: 0 (no)
- O=C1c2c(c3c4ccccc4[nH]c3c3ccc4ccccc4c23)C(=O)N1CCN1CCOCC1: 0 (no)
- CCOC(=O)[C@@H]1CSC(CC)=C(C(=O)O)N1: 0 (no)
- O=C(Nc1cccc2ccccc12)NC1CC1: 0 (no)
- CCOC(=O)c1nn(-c2ccc(S(N)(=O)=O)cc2)c2nc(C)cc(=O)n12: 0 (no)
- N=C(N)c1ccc(-c2ccc(-c3ccccc3)o2)cc1: 1 (yes)
- CCCOC(=O)Nc1nc2ccc(SCC(C)C)cc2s1: 0 (no)
- O=C(CSc1nc2sc3c(c2c(=O)n1-c1ccccc1)CCCCC3)N/N=C/c1cccc([N+](=O)[O-])c1: 0 (no)
- O=C1c2c(c3c4ccccc4[nH]c3c3ccc4ccccc4c23)C(=O)N1CCN1CCNCC1: 1 (yes)
- COC(=O)c1c(C)c2n(c1C)C(=O)C(c1ccccc1)=C2: 0 (no)
- Nc1nc2ccccc2c2c1S(=O)(=O)c1ccc(Cl)cc1C2=O: 0 (no)
- COc1ccc(/C=C/C(=O)c2ccc(Nc3ccnc4cc(Cl)ccc34)cc2)cc1: 0 (no)
- C=CCc1c(O)c(C(=O)/C=C/c2ccccc2)c(OC)c2ccoc12: 0 (no)
- COC1=CC(c2ccc[nH]2)=N/C1=C\c1[nH]c(C)c(C)c1CCC(=O)OCc1ccccc1: 1 (yes)
- COc1cccc(CNc2ccc3ncnc(Nc4ccc(F)c(Cl)c4)c3c2)c1: 0 (no)
- Cc1ccc2c(n1)C(=O)C(Br)=C(CC(C)C)C2=O: 0 (no)
- O=C(CN1C(=O)S/C(=C\C(Cl)=C\c2ccccc2)C1=O)NCCc1ccc(O)cc1: 1 (yes)
- C#CCNC(=O)[C@H](CC)[C@H]1CC[C@H](C)[C@H]([C@@H](C)[C@H](O)[C@H](C)C(=O)[C@H](CC)C2O[C@]3(C=CC(=O)[C@]4(CC[C@@](C)([C@H]5CC[C@](O)(CC)[C@H](C)O5)O4)O3)[C@H](C)C[C@@H]2C)O1 (stereo partly drawn): 1 (yes)
- Cc1cc(=O)oc2cc(OCc3nn4c(Nc5nc6ccccc6s5)c(-c5ccccc5)nc4s3)ccc12: 0 (no)
- COc1ccc2c(c1OC)CO[C@@H]2[C@H]1c2c(cc3c(c2OC)OCO3)CCN1S(=O)(=O)c1cn(C)cn1: 1 (yes)
- CC(C)Cn1cnc2c(=O)[nH]c(N)nc21: 0 (no)
- CC(C)c1ccc(Cc2cnc(NC(=O)c3cc(Br)cs3)s2)cc1: 0 (no)
- O=C(c1nn(-c2ccccc2)c2c1CC(NCc1ccc(F)cc1)CC2)N1CCCCC1 (stereo not drawn): 0 (no)
- CCOCCNC1=C(Cl)C(=O)c2ccccc2C1=O: 0 (no)
- CC(=O)Oc1ccc(N2C(=O)C(Cl)=C(Nc3cccc(C(F)(F)F)c3)C2=O)cc1: 0 (no)
- COc1cc2nc3cc([N+](=O)[O-])ccc3c(NCCNCC(C)O)c2cc1OC (stereo not drawn): 1 (yes)
- CN(C)Cc1ccc(O)c(C(=O)O)c1: 0 (no)
- CC(C)c1ccc(C(=O)Nc2nc3ccc(O)c(CN(C)C)c3s2)cc1: 0 (no)
- N#CC1=C(c2ccccc2)Nc2c(c(-c3ccc(Cl)cc3)nn2-c2ccccc2)C12C(=O)Nc1ccc(Cl)cc12 (stereo not drawn): 0 (no)
- C=C(C)[C@@H]1CC[C@]2(C(=O)O)CC[C@]3(C)[C@H](CC[C@@H]4[C@@]5(C)CCC(NC(=O)c6cccc(OC(C)=O)c6OC(C)=O)C(C)(C)[C@@H]5CC[C@]43C)[C@@H]12 (stereo partly drawn): 1 (yes)
- CN1C(=O)/C(=C\c2c(Cl)cccc2Cl)c2ccccc21: 0 (no)

###

# Test system: EKVX NSCLC
# assay.text: NCI-60 one-dose screen, 48 h
# reported.conditions: 10 µM unless noted
This is part of a sample that, as a whole, favours compounds with a hit. Of some 83,000 tested, about 20% had one in any assay. Activity calls are given as the source filed them. The calls were made as follows: active = growth percent below 10; inactive = the rest.
Outcome codes: active, inactive

- O=C1/C(=C/c2cccc(F)c2)CN(C(=O)C(Cl)Cl)C/C1=C\c1cccc(F)c1: active
- COC(=O)c1c(C)nc(C)c2c1C(=O)C(Br)=C(NCc1ccccc1)C2=O: inactive
- O=S(=O)(NCCCNc1nccc(-c2c(-c3ccc(F)c(O)c3)nc3sccn23)n1)c1ccccc1: inactive
- O=c1[nH]c(-c2ccccc2)nc2sc3cc(O)ccc3c12: inactive
- O=C(CSc1nc2ccc([N+](=O)[O-])cc2[nH]1)Nc1ccc([N+](=O)[O-])cc1: inactive
- CCOC(=O)C(=O)C(C(=O)OCC)c1ccccc1 (stereo not drawn): inactive
- COc1ccc(Nc2nc(-c3cc(O)c(C)c(C)c3O)cs2)cc1: inactive
- Cc1ccccc1/C=C/C(=O)c1cccc(OCCCOc2cccc(C(=O)/C=C/c3ccccc3C)c2)c1: inactive
- C[PH+](c1nc2ccccc2nc1[PH+](C)C(C)(C)C)C(C)(C)C.C[PH+](c1nc2ccccc2nc1[PH+](C)C(C)(C)C)C(C)(C)C.[Au+].[Cl-] (stereo not drawn): active
- N=C(N)c1ccc(-c2ccc(-c3ccc(Cl)c(Cl)c3)s2)nc1: inactive
- O=c1c2ccccc2n2cnc3ccc(Cl)c1c32: inactive
- C=CCSc1nnc(NC(=O)CCl)s1: inactive
- COC1=CC(c2ccc[nH]2)=N/C1=C\c1[nH]c(C)c(CC(=O)NCc2ccccc2)c1C: inactive
- CC1=C([Se]CC(OC(=O)CC[Se]c2ccccc2)C(=O)NC(C)(C)C)C(=O)c2ccccc2C1=O (stereo not drawn): active
- CCOC(=O)n1cc(-c2nonc2-c2cn(C(=O)OCC)c3ccc(Br)cc23)c2ccccc21: inactive
- C=C(C)[C@@H]1CC[C@]2(C(=O)N3CCOCC3)CC[C@]3(C)[C@H](CC[C@@H]4[C@@]5(C)C/C(=C/c6ccncc6)C(=O)C(C)(C)[C@@H]5CC[C@]43C)[C@@H]12: inactive
- N#Cc1nc(-c2ccc(F)cc2)oc1S(=O)(=O)N1CCOCC1: inactive
- O=C(CN1C(=O)S/C(=C\c2ccccc2)C1=O)Nc1ncc(Cc2ccccc2Cl)s1: inactive
- COc1ccc(C(=O)Nc2cccc(-c3cc(=O)c4c(OC)c(OC)c(OC)cc4o3)c2)cc1: inactive
- C=CC(=O)N1CCN(c2cccc(Oc3nccc(Nc4nnc(-c5ccc(Br)cc5)s4)n3)c2)CC1: inactive
- CC(=O)Oc1ccc(C)cc1C: inactive
- COc1cc(OC)c(NC(=O)c2cc3ccccc3cc2O)cc1Cl: inactive
- COc1ccc(CNc2c3ccccc3nc3ccccc23)cc1: inactive

###

Recorded growth values for a group of compounds are listed next.
# Tested on: DU-145 prostate
# assay.text: NCI-60 one-dose screen, 48 h (100 = growth as untreated, 0 = no growth, -100 = all killed)
# reported.conditions: 10 µM unless noted
The panel holds about 83,000 compounds, 20% with a hit somewhere; the sample as a whole holds those more often. Calls of active or inactive are those of the source. How the source made its calls: active means growth percent below 10; inactive means the rest.
measured.quantity: growth

• Nc1n[nH]c2ccc([C@H]3[C@@H]4C5CCC(C5)[C@@H]4c4c(ccc5[nH]ncc45)N3S(=O)(=O)C3CC3)cc12 (some centres undefined) = 17.9% (inactive)
• Nc1n[nH]c2cccc(C#Cc3cccc(NC(=O)c4cc(F)cc(C(F)(F)F)c4)c3)c12 = 97.9% (inactive)
• Ic1ccc(OCCCCn2ccnc2)cc1 = 81.2% (inactive)
• Cc1cccc(CNc2c3ccccc3nc3ccccc23)c1 = 33.9% (inactive)

###

# Tested on: HCC-2998 colon
# assay.text: NCI-60 one-dose screen, 48 h (100 = growth as untreated, 0 = no growth, -100 = all killed)
# reported.conditions: 10 µM unless noted
The panel holds about 83,000 compounds, 20% with a hit somewhere; the sample as a whole holds those more often.
Binary call on growth: Condition met from 80% upward, Condition not met beneath that.

- CN(C)CCNC(=O)c1ccc(-c2nc3ccc4[nH]ncc4c3c3c2C2CCC3C2)cc1 (configuration not stated): Condition not met
- CC(=O)c1c(C)nc2ccccc2c1/C=C/c1ccc(F)cc1: Condition met
- CSc1oc(C)nc1[P+](c1ccccc1)(c1ccccc1)c1ccccc1: Condition not met
- Nc1cc(C(=O)NC[C@H]2CN(c3ccc(N4CCC(C(=O)O)CC4)cc3)C(=O)O2)ccc1Cl: Condition met
- Cc1[nH]c(C(=O)Nc2ccc(C(=O)N3CCN(c4cc5c(cc4F)c(=O)c(C(=O)O)cn5C4CC4)CC3)cc2OC(C)C)c(Cl)c1Cl: Condition met
- COc1cc(OC)c(NC(=O)c2cc3ccccc3cc2O)cc1Cl: Condition not met
- O=S(=O)(NCCNc1nccc(-c2c(-c3ccc(F)c(O)c3)nc3sccn23)n1)c1ccc(O)cc1: Condition not met
- CCC(C)N(CCNc1cc(OC)cc2cccnc12)CC(C)C (configuration not stated): Condition met
- CSc1nc2ccccc2cc1/C=[N+](\[O-])c1ccccc1: Condition met
- C=C1C(=O)O[C@H]2[C@H]1CC/C(COC(=O)C(=O)c1cn(C)c3ccc(Cl)cc13)=C\CC[C@@]1(C)O[C@@H]21: Condition not met
- CC(C)(C)[Si](C)(C)OC1[C@@H](CNC(=O)NC(=O)NC(N)=O)O[C@@H](n2cnc3c(NC(=O)Nc4ccccc4)ncnc32)[C@H]1O[Si](C)(C)C(C)(C)C (some centres not stated): Condition met
- CCCc1c(OC(=O)c2ccccc2)nc2[nH]c(=O)sc2c1C: Condition met
- CC1OC(n2c3ccccc3c3c4c(c5c6ccccc6[nH]c5c32)C(=O)N(CCN2CCCC2)C4=O)CC(O)C1O (configuration not stated): Condition not met
- C=C(C)[C@@H]1CC[C@]2(C(=O)O)CC[C@]3(C)[C@H](CC[C@@H]4[C@@]5(C)CCC(NC(=O)c6cccc(OC(C)=O)c6OC(C)=O)C(C)(C)[C@@H]5CC[C@]43C)[C@@H]12 (some centres not stated): Condition not met
- Oc1ccc(Cl)cc1/C=N\NC(=S)N/N=C/c1cc(Cl)ccc1O: Condition not met
